test: Pharmacokinetics of IR formulations in minipigs; format: in vivo; conditions: minipig, plasma, sc, 0.4 mg/kg, minipigs, IR, SC 0.4 mg/Kg; HPB:PEP 15:1 saline
measured attribute: AUC(0-t) (ng·h/mL)
Numbers only, in ng·h/mL.

Data request: Look up AUC(0-t): C[C@@H](O)[C@@H]1NC(=O)[C@H](CCCCN)NC(=O)[C@@H](Cc2c[nH]c3ccccc23)NC(=O)[C@H](Cc2c[nH]c3ccccc23)NC(=O)[C@H](Cc2ccccc2)NC(=O)CCCNC(=O)CCCN(CC(N)=O)C(=O)[C@H](Cc2ccccc2)NC1=O [Veldoreotide Acetate]
Data returned: 198

###

experiment: in vivo; set-up: species or system rats; settings: Sprague-Dawley, rat, sc, 3 mg/kg, pH 4, Rats BA (F %)
measured attribute: bioavailability (%)
Answers are plain numbers, in %.

Data request: Look up bioavailability: C[C@@H](O)[C@@H]1NC(=O)[C@H](CCCCN)NC(=O)[C@@H](Cc2c[nH]c3ccccc23)NC(=O)[C@H](Cc2c[nH]c3ccccc23)NC(=O)[C@H](Cc2ccccc2)NC(=O)CCCNC(=O)CCCN(CC(N)=O)C(=O)[C@H](Cc2ccccc2)NC1=O [Veldoreotide Acetate]
Data returned: 83

###

assay: Pharmacokinetics of IR formulations in minipigs; assay type: in vivo; conditions: minipig, plasma, sc, 0.1 mg/kg, pH 4, IR, SC, 0.1 mg/Kg; Lactic acid buffer pH 4; read-out: Minipigs absolute BA (F %)
measured attribute: bioavailability (%)
One number for each entry, in %.

Data request: Look up bioavailability: C[C@@H](O)[C@@H]1NC(=O)[C@H](CCCCN)NC(=O)[C@@H](Cc2c[nH]c3ccccc23)NC(=O)[C@H](Cc2c[nH]c3ccccc23)NC(=O)[C@H](Cc2ccccc2)NC(=O)CCCNC(=O)CCCN(CC(N)=O)C(=O)[C@H](Cc2ccccc2)NC1=O [Veldoreotide]
Data returned: 45

###

Experiment: Solubility screening of veldoreotide acetate (10 mg, incremental volumes of medium, USP definition)
Type: physicochemical
Details: PBS, pH 7.2, 10 ml Slightly soluble (0.001 g/ml; 1 mg/ml), 10 mg in PBS pH 7.2
From the text: The solubility of veldoreotide acetate in aqueous media was screened by the following method. […] Following the results of the screening studies, several media were selected for verification studies based on quantitative assessment of the peptide concentration by HPLC (maximal solubility). […]
measured attribute: solubility

Data request: Look up solubility: C[C@@H](O)[C@@H]1NC(=O)[C@H](CCCCN)NC(=O)[C@@H](Cc2c[nH]c3ccccc23)NC(=O)[C@H](Cc2c[nH]c3ccccc23)NC(=O)[C@H](Cc2ccccc2)NC(=O)CCCNC(=O)CCCN(CC(N)=O)C(=O)[C@H](Cc2ccccc2)NC1=O [Veldoreotide Acetate]
Data returned: < 1000 µg/mL

###

test: Solubility screening of veldoreotide acetate (10 mg, incremental volumes of medium, USP definition); type: physicochemical; details: water for injection (WFI-USP), 0.1 ml Freely soluble (0.1 g/ml), 10 mg in WFI-USP (water for injection)
measured attribute: solubility

Data request: Look up solubility: C[C@@H](O)[C@@H]1NC(=O)[C@H](CCCCN)NC(=O)[C@@H](Cc2c[nH]c3ccccc23)NC(=O)[C@H](Cc2c[nH]c3ccccc23)NC(=O)[C@H](Cc2ccccc2)NC(=O)CCCNC(=O)CCCN(CC(N)=O)C(=O)[C@H](Cc2ccccc2)NC1=O [Veldoreotide Acetate]
Data returned: < 100 mg/mL
